Target: T1, anchored ILT2 D3 domain protein (human)
T1 construct: on CHO cells; the entry includes leader remnant, V5 tag and CD24 GPI anchor signal
T1 sequence (chain, as listed by the source limits assumed): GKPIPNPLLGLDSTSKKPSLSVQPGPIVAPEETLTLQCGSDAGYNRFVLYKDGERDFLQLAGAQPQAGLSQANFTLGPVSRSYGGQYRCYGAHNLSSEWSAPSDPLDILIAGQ
Assay: flow cytometry on CHO cells expressing the anchored ILT2 D3 domain protein (SEQ ID NO: 48); stacked histograms, axis without numbers, no control histogram
assayEndpoint: binding result

[
  {
    "binder": "27C10 (antibody, human IgG1, V domains shown) VH: EVQLQESGPGLVKPSQSLSLTCSVTGYSITSGYYWNWIRQFPENKLEWMGYIRYDGSNNYNPSLNNRISITRDASKNQFFLKLNSVTTEDTATYYCARGWLLWFYAVDYWGQGTSVTVSS VL: DVVMTQTPLSLPVSLGDQASISCRSSQSIVHTNGNTYLEWYLQKSGQSPKLLIYKVSNRLSGVPDRFSGSGSGTDFTLKISRVEAEDLGIYYCFQGSHVPWTFGGGTKLEIK",
    "endpointResult": "no binding"
  },
  {
    "binder": "18E1 (antibody, human IgG1, V domains shown) VH: QVQLQQSGAELVKPGASVRLSCKASGYTFTAHTIHWVKQRSGQGLEWIGWLYPGSGSIKYNEKFKDKATLTADKSSSTVYMELSRLTSEDSAVYFCARHTNWDFDYWGQGTTLTVSS VL: NIVLTQSPASLAVSLGQRATISCKASQSVDYGGASYMNWYQQKPGQPPKLLIYAASNLESGIPARFSGSGSGTDLTLNIHPVEEEDAAMYYCQQSNEEPWTFGGGTKLEIK",
    "endpointResult": "no binding"
  },
  {
    "binder": "27H5 (antibody, human IgG1, V domains shown) VH: QVQLKESGPGLVAPSQSLSITCTVSGFSLTSYGVSWVRQPPGKGLEWLGVIWGDGNTNYHSALISRLSISKDNSKSQVFLKLNSLQTDDTATYYCARTNWDGWFAYWGQGTLVTVSA VL: DIVMTQSHKFMSTSVGDRVSITCKASQDVGTAVAWYQQKPGQSPKLLIYWASTRHTGVPDRFTGSGSGTDFTLTISNVQSEDLADYFCQQYRSYPLGTFGGGTKLEIK",
    "endpointResult": "no binding"
  }
]

The reported measurements were obtained from patent US20220025056A1.
